biological target: HLA-A*02:19; assay: IEDB peptide-MHC binding, purified MHC/direct/fluorescence; filed as Kd, often an IC50 or EC50 that approximates it; bounds were set here for any values at or beyond the usual limits of such assays; conditions: source organism: Entamoeba histolytica HM-1:IMSS
pKd: −log10 of the molar value.
PARAMETER: pKd

# input // map STYQFSLMQ to recorded pKd (system: HLA-A*02:19)
# output ≤ 4.70

----------
biological target: HLA-B*15:01; test: IEDB peptide-MHC binding, purified MHC/direct/fluorescence; filed as Kd, often an IC50 or EC50 that approximates it; bounds were set here for any values at or beyond the usual limits of such assays; conditions: source organism: Yellow fever virus
pKd: −log10 of the molar value.
PARAMETER: pKd

# input // query pKd value for entry FHERGYVKL
# output ≤ 4.70
